These measurements were taken from patent US5445951A.

- Assay type: physicochemical
- CONDITION SET: estimated from known log P values / increments
Parameter: log P. Scope: all listed entries.
// return a plain number; no unit text

A selection of reference data follows.
CCOCCOCC :: 0.87
CC1CCC(C)O1 (stereo not shown) [2,5-dimethyl THF, 2,5-dimethyltetrahydrofuran] :: 1.5
CC1CCCO1 (stereo not shown) [2-methyl THF, 2-methyltetrahydrofuran] :: 1.0

For the next question, use this compound.
Name the recorded log P for CC1(C)CCC(C)(C)O1 [2,2,5,5-tetramethyl THF, 2,2,5,5-tetramethyltetrahydrofuran] .
2.5

###

- TARGET OR SYSTEM: alcalase (Bacillus licheniformis, UniProt P00780)
- Construct: purchased Novo Nordisk (gift)
- Sequence (P00780 106-379): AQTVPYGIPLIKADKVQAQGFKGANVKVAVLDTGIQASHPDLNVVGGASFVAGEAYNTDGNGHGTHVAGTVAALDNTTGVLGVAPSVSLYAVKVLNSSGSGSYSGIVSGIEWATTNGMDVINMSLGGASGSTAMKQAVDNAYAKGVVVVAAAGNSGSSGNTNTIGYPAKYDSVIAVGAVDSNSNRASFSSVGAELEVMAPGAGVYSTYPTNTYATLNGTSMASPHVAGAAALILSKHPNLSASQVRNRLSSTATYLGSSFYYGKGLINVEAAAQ
- METHOD SUMMARY: Solvent effect on alcalase catalyzed deacetylation of SOA
- Assay type: biochemical
- CONDITION SET: solvent as labelled, 24 hrs
- Protocol: Identical enzyme catalyzed SOA deacetylations were run in numerous anhydrous solvents. After 24 hrs incubation an aliquot was analyzed by HPLC. Enzyme Precipitation. Alcalase was prepared by adding 37.5 ml cold acetone (-20° C.) to 25 ml of alcalase solution as supplied by Novo. […] Enzyme and Solvent Screening for SOA Deacetylation. […] The residue was reconstituted in 200 μl of acetonitrile and 10 μl of this solution was analyzed by HPLC.
Returns 1 if the recorded ShexaA is greater than or equal to 0.2%, and 0 otherwise.

Reference set (3 entries):
C1CCOC1 [THF, tetrahydrofuran] :: 0
COC(C)(C)C :: 1
CCCOCCC :: 1

Given the entry CC(C)OC(C)C , answer whether its ShexaA meets or surpasses 0.2%.
1

Given the entry CCCCOC(C)=O [n-butyl acetate] , answer whether its ShexaA meets or surpasses 0.2%.
0

Given the entry COc1ccccc1 , answer whether its ShexaA meets or surpasses 0.2%.
0

Given the entry c1ccccc1 , answer whether its ShexaA meets or surpasses 0.2%.
0

Given the entry CCCCOCC , answer whether its ShexaA meets or surpasses 0.2%.
1

Given the entry ClC(Cl)(Cl)Cl [CCl4, carbon tetrachloride] , answer whether its ShexaA meets or surpasses 0.2%.
0

###

- TARGET OR SYSTEM: alcalase (Bacillus licheniformis)
- Construct: purchased Novo Nordisk (gift)
- Sequence (P00780 106-379): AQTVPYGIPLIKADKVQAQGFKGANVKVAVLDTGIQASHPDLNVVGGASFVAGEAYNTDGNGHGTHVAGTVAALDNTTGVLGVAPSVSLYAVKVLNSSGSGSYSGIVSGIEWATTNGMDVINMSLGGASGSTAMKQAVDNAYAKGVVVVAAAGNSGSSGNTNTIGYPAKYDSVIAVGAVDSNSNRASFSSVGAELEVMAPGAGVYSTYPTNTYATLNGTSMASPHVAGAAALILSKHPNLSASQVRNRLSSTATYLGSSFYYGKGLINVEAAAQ
- METHOD SUMMARY: Solvent effect on alcalase catalyzed deacetylation of SOA
- Format: biochemical
- CONDITION SET: solvent as labelled, 24 hrs
Hi! Just check whether SOA is below 90%. Below gives Criterion met, equal or above gives Criterion not met.

COc1ccccc1 :: Criterion not met
Cc1ccccc1 :: Criterion not met
c1ccccc1 :: Criterion not met

With those in mind, consider the next compound.
Problem: For the compound CCCCOCC , is SOA under 90%?
Criterion met

###

- System: lipase AY 30
- METHOD SUMMARY: Effect of the solvent on lipase AY 30 SOA deacetylation
- Format: biochemical, Candida cylindracea
- CONDITION SET: lipase AY 30, solvent as labelled, 24 hrs
Parameter: SheptaA. Scope: all listed entries.
Expressed in %, but write only the number.

A selection of reference data follows.
OC1CCCCC1 :: 2.9
CC(C)=O :: 1.4
CCC(C)(C)OC :: 37.1
CCOCCOCC :: 13.5
CCCCOCC :: 21.4

Name the recorded SheptaA for CCCCOC(C)=O [n-butyl acetate] .
4.6

Name the recorded SheptaA for CC#N .
1.4

Name the recorded SheptaA for CCCCC(=O)CC .
14.9

Name the recorded SheptaA for ClC(Cl)Cl [chloroform] .
11.6

Name the recorded SheptaA for COc1ccccc1 .
9.6

Name the recorded SheptaA for CC(C)OC(C)C .
39.6

Name the recorded SheptaA for Cc1ccccc1 .
16.5

Name the recorded SheptaA for C1CCOC1 [THF, tetrahydrofuran] .
1.3

Name the recorded SheptaA for ClC(Cl)(Cl)Cl [CCl4, carbon tetrachloride] .
10.4

###

- System: lipase AY 30
- METHOD SUMMARY: Effect of the solvent on lipase AY 30 catalyzed deacylation of SOP
- Format: biochemical, Candida cylindracea
- CONDITION SET: lipase AY 30, 24 hrs, HPLC peak 8.9 min
MEASURED ENDPOINT: SheptaP's (8.9 min) (%)
Expressed in %, but write only the number.

Cc1ccccc1 :: 0
CCCCCCCO :: 0
CCCCOC(C)=O [n-butyl acetate] :: 0
COC(C)(C)C :: 0.3
CCC(C)=O :: 0
CC(C)=O :: 0
C1CCCCC1 :: 0.4
CCCCCCC :: 0.5
CC(C)OC(C)C :: 1.5
CCCCC(=O)CC :: 0.8

Test system lipase AY 30; read-out SheptaP's (8.9 min); what value for CC#N ?
0

###

- Test system: lipase AY 30
- METHOD SUMMARY: Effect of the solvent on lipase AY 30 SOA deacetylation
- Assay type: biochemical, Candida cylindracea
- CONDITION SET: lipase AY 30, solvent as labelled, 24 hrs
Parameter: ShexaA. Scope: all listed entries.
Expressed in %, but write only the number.

A selection of reference data follows.
C1CCOC1 [THF, tetrahydrofuran] :: 0
CC#N [acetonitrile] :: 0
CC(C)=O [acetone] :: 0

Test system lipase AY 30; read-out ShexaA; what value for CC1CCCO1 (centres unmarked) [2-methyl THF, 2-methyltetrahydrofuran] ?
0

Test system lipase AY 30; read-out ShexaA; what value for O=C1CCCCC1 [cyclohexanone] ?
0

Test system lipase AY 30; read-out ShexaA; what value for COC(C)(C)C [t-butyl methyl ether] ?
9.6

Test system lipase AY 30; read-out ShexaA; what value for c1ccccc1 [benzene] ?
0.4

Test system lipase AY 30; read-out ShexaA; what value for Cc1ccccc1 [toluene] ?
4.8

###

- TARGET OR SYSTEM: alcalase (Bacillus licheniformis, UniProt P00780)
- Construct: purchased Novo Nordisk (gift)
- Sequence (P00780 106-379): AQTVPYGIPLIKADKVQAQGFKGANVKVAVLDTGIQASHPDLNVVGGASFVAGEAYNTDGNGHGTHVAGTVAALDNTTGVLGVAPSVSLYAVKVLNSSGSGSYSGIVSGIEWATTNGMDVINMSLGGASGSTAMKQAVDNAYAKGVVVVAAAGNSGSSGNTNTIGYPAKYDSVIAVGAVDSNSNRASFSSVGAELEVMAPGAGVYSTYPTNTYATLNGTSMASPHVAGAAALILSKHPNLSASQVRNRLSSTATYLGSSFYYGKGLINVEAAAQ
- METHOD SUMMARY: Solvent effect on alcalase catalyzed deacetylation of SOA
- Type: biochemical
- CONDITION SET: 24 hrs, total of 1'-OH and 6'-OH heptaacetates
Parameter: SheptaA. Scope: all listed entries.
Please state the value followed by its unit.

A selection of reference data follows.
CCCOCCC [dipropyl ether] :: 14.5%
COC(C)(C)C [t-butyl methyl ether] :: 6.8%
ClC(Cl)(Cl)Cl [CCl4, carbon tetrachloride] :: 5.2%
C1CCOC1 [THF, tetrahydrofuran] :: 2.0%
COc1ccccc1 [anisole] :: 3.9%

Name the recorded SheptaA for Cc1ccccc1 [toluene] .
6.0%

Name the recorded SheptaA for CCCCOC(C)=O [n-butyl acetate] .
2.4%

###

- Tested on: proleather
- METHOD SUMMARY: Nucleophile screening for proleather catalyzed deacetylation of SOA in diisopropyl ether
- Format: biochemical, Bacillus subtilis
- CONDITION SET: nucleophile 200 mM, 66 hrs
Parameter: % conv. Scope: all listed entries.
Expressed in %, but write only the number.

OCCc1ccccc1 [phenethyl alcohol] :: 51.5

Name the recorded % conv for OC1CCCCC1 [cyclohexanol] .
38.2

Name the recorded % conv for CCO [ethanol] .
47.7

Name the recorded % conv for CCCO [propanol] .
46.4

Name the recorded % conv for OCc1ccccc1 [benzyl alcohol] .
46.8

Name the recorded % conv for OCC1CCCCC1 [cyclohexylmethanol] .
42.8

Name the recorded % conv for CCCCO [butanol, n-butanol] .
44.4

Name the recorded % conv for OCCC1CCCCN1 (stereo not shown) [2-piperidineethanol] .
41.3

Name the recorded % conv for CC(C)NC(C)C [diisopropylamine] .
37.3

Name the recorded % conv for CO [methanol] .
53.8
